biological target: UniProt:Q7ZJM1; test: Inhibition of HIV1 integrase 3' processing activity
pIC50: −log10 of the molar value.

# mol smiles, assay target, pIC50
measured = [
    ("COc1ccc(/C=C2\\C(=O)N(c3cccc(Br)c3)N=C2C(F)(F)F)c(OC)c1OC", "UniProt:Q7ZJM1", "< 4.00"),
    ("COc1ccc(/C=C2\\C(=O)N(c3ccc(I)cc3)N=C2C(F)(F)F)cc1OCc1ccc(F)cc1", "UniProt:Q7ZJM1", "< 4.00"),
    ("COc1ccc(/C=C2\\C(=O)N(c3ccc(C(=O)O)cc3)N=C2C(F)(F)F)cc1OCc1ccc(F)cc1", "UniProt:Q7ZJM1", "< 4.00"),
    ("COc1ccc(/C=C2\\C(=O)N(c3nc4ccccc4s3)N=C2C(F)(F)F)cc1OCc1ccc(F)cc1", "UniProt:Q7ZJM1", "< 4.00"),
    ("COc1ccc(/C=C2\\C(=O)N(c3cccc([N+](=O)[O-])c3)N=C2C(F)(F)F)cc1OCc1ccc(F)cc1", "UniProt:Q7ZJM1", 4.28),
    ("COc1ccc(/C=C2\\C(=O)N(c3cccc(Br)c3)N=C2C(F)(F)F)cc1OC", "UniProt:Q7ZJM1", 4.05),
    ("CCC(=O)OC1=NN(c2cccc(Br)c2)C(=O)/C1=C\\c1ccc(OC)c(OCc2ccc(F)cc2)c1", "UniProt:Q7ZJM1", "< 4.00"),
    ("COc1ccc(/C=C2\\C(=O)N(c3cccc(Br)c3)N=C2C(F)(F)F)cc1Cc1ccc(F)cc1", "UniProt:Q7ZJM1", 4.68),
]

* * *

Overview of recorded IC50 for various molecules
molecular target: UniProt:Q7ZJM1; test: Inhibition of HIV1 integrase 3' processing activity

# mol smiles, IC50
records = [
    ("COc1ccc(/C=C2\\C(=O)N(c3cccc([N+](=O)[O-])c3)N=C2C(=O)O)cc1OCc1ccc(F)cc1", "60 µM"),
    ("COc1ccc(/C=C2\\C(=O)N(c3cccc(Br)c3)N=C2OC(C)=O)cc1OCc1ccc(F)cc1", "> 100 µM"),
    ("COc1ccc(/C=C2\\C(=O)N(c3ccccc3)N=C2C(F)(F)F)cc1OCc1ccc(F)cc1", "> 100 µM"),
    ("COc1ccc(/C=C2\\C(=O)N(c3cccc(Br)c3)N=C2COC(C)=O)cc1OCc1ccc(F)cc1", "> 100 µM"),
    ("COc1ccc(/C=C2\\C(=O)N(c3cccc(-c4ccccc4)c3)N=C2C(F)(F)F)cc1OCc1ccc(F)cc1", "> 100 µM"),
    ("O=C(O)C1=NN(c2cccc([N+](=O)[O-])c2)C(=O)/C1=C\\c1ccc(O)c(OCc2ccc(F)cc2)c1", "95 µM"),
    ("COc1ccc(/C=C2\\C(=O)N(c3cccc([N+](=O)[O-])c3)N=C2C(=O)O)cc1Cc1ccc(F)cc1", "15 µM"),
]

* * *

molecular target: Human immunodeficiency virus type 1 integrase (Human immunodeficiency virus 1); assay: Inhibition of HIV1 integrase strand transfer activity
pIC50: −log10 of the molar value.
In this section we review reported pIC50 values for a set of molecules.

# mol smiles, censoring sign, pIC50
data = [
    ("COc1ccc(/C=C2\\C(=O)N(c3cccc(C(F)(F)F)c3)N=C2C(F)(F)F)cc1OCc1ccc(F)cc1", "=", 4.62),
    ("COc1ccc(/C=C2\\C(=O)N(c3cccc(Br)c3)N=C2C(F)(F)F)cc1OC", "=", 4.47),
    ("COc1cc(/C=C2\\C(=O)N(c3cccc(Br)c3)N=C2C(F)(F)F)cc(OC)c1OC", "=", 4.82),
    ("COc1ccc(/C=C2\\C(=O)N(c3cccc(Br)c3)N=C2C(F)(F)F)cc1OCc1ccc(F)cc1", "=", 4.40),
    ("COc1ccc(/C=C2\\C(=O)N(c3cccc(Br)c3)N=C2C(F)(F)F)cc1OCc1cccc(Cl)c1F", "=", 4.52),
    ("O=C1/C(=C\\c2ccc(O)c(OCc3ccc(F)cc3)c2)C(C(F)(F)F)=NN1c1cccc(Br)c1", "=", 4.66),
    ("O=C(O)C1=NN(c2cccc([N+](=O)[O-])c2)C(=O)/C1=C\\c1ccc(OCc2ccc(F)cc2)c(O)c1", "=", 5.52),
    ("CCC1=NN(c2cccc(Br)c2)C(=O)/C1=C\\c1ccc(OC)c(OCc2ccc(F)cc2)c1", "<", 4.00),
]

* * *

Entries and their pIC50 values follow.
target: UniProtKB Q7ZJM1; assay: Inhibition of HIV1 integrase strand transfer activity
pIC50: −log10 of the molar value.
measurement type: pIC50

# mol smiles, assay target, censoring sign, experimental result
data = [
    ("COc1ccc(/C=C2\\C(=O)N(c3cccc(Br)c3)N=C2C(=O)O)cc1OCc1ccc(F)cc1", "UniProtKB Q7ZJM1", "=", 4.72),
    ("COc1ccc(/C=C2\\C(=O)N(c3cccc(F)c3)N=C2C(F)(F)F)cc1OCc1ccc(F)cc1", "UniProtKB Q7ZJM1", "=", 4.22),
    ("COc1ccc(/C=C2\\C(=O)N(c3cccc(Br)c3)N=C2OC(C)=O)cc1OCc1ccc(F)cc1", "UniProtKB Q7ZJM1", "=", 4.00),
    ("COc1ccc(/C=C2\\C(=O)N(c3ccc(NS(C)(=O)=O)cc3)N=C2C(F)(F)F)cc1OCc1ccc(F)cc1", "UniProtKB Q7ZJM1", "<", 4.00),
    ("COc1ccc(/C=C2\\C(=O)N(c3cccc(-c4ccccc4)c3)N=C2C(F)(F)F)cc1OCc1ccc(F)cc1", "UniProtKB Q7ZJM1", "=", 4.80),
    ("COc1ccc(/C=C2\\C(=O)N(c3cccc([N+](=O)[O-])c3)N=C2C(=O)O)cc1OCc1ccc(F)cc1", "UniProtKB Q7ZJM1", "=", 4.85),
    ("CCC(=O)OC1=NN(c2cccc(Br)c2)C(=O)/C1=C\\c1ccc(OC)c(OCc2ccc(F)cc2)c1", "UniProtKB Q7ZJM1", "=", 4.06),
    ("COc1ccc(/C=C2\\C(=O)N(c3cccc(I)c3)N=C2C(F)(F)F)cc1OCc1ccc(F)cc1", "UniProtKB Q7ZJM1", "=", 4.46),
]

* * *

biological target: Human immunodeficiency virus type 1 integrase (Human immunodeficiency virus 1, UniProt Q7ZJM1); test: Inhibition of HIV1 integrase strand transfer activity
Sequence (Q7ZJM1 whole entry): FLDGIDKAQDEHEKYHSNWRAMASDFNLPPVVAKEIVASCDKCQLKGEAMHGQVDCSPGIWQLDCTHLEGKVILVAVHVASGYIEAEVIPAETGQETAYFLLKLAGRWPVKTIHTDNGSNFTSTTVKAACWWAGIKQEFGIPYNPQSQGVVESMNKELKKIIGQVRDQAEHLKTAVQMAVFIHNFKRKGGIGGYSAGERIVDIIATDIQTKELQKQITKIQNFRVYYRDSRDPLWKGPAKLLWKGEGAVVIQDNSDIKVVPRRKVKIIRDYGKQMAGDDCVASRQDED
The compounds listed here are annotated with their IC50.

# mol smiles, censoring sign, IC50 (µM)
records = [
    ("COc1ccc(/C=C2\\C(=O)N(c3ccc(Br)cc3)N=C2C(F)(F)F)cc1OCc1ccc(F)cc1", "=", 25),
    ("COc1ccc(/C=C2\\C(=O)N(c3ccccc3)N=C2C(F)(F)F)cc1OCc1ccc(F)cc1", ">", 100),
    ("COc1ccc(/C=C2\\C(=O)N(c3nc4ccccc4s3)N=C2C(F)(F)F)cc1OCc1ccc(F)cc1", "=", 27),
    ("COc1ccc(/C=C2\\C(=O)N(c3cccc(Cl)c3)N=C2C(F)(F)F)cc1OCc1ccc(F)cc1", "=", 30),
    ("COc1ccc(/C=C2\\C(=O)N(c3cccc(Br)c3)N=C2C)cc1OCc1ccc(F)cc1", ">", 100),
    ("COc1ccc(/C=C2\\C(=O)N(c3ccc(I)cc3)N=C2C(F)(F)F)cc1OCc1ccc(F)cc1", "=", 69),
    ("O=C(O)C1=NN(c2cccc([N+](=O)[O-])c2)C(=O)/C1=C\\c1ccc(O)c(OCc2ccc(F)cc2)c1", "=", 10),
    ("COc1ccc(/C=C2\\C(=O)N(c3cccc([N+](=O)[O-])c3)N=C2C(F)(F)F)cc1OCc1ccc(F)cc1", "=", 19),
]

* * *

pIC50: recorded values
biological target: Human immunodeficiency virus type 1 integrase (Human immunodeficiency virus 1); experiment: Inhibition of HIV1 integrase strand transfer activity
pIC50: −log10 of the molar value.

# mol smiles, assay target, censoring sign, pIC50
measured = [
    ("COc1ccc(/C=C2\\C(=O)N(c3cccc(Br)c3)N=C2C(F)(F)F)c(OC)c1OC", "Human immunodeficiency virus type 1 integrase (Human immunodeficiency virus 1)", "<", 4.00),
    ("COc1ccc(/C=C2\\C(=O)N(c3cccc(Br)c3)N=C2C(F)(F)F)cc1Cc1ccc(F)cc1", "Human immunodeficiency virus type 1 integrase (Human immunodeficiency virus 1)", "=", 4.96),
    ("COc1ccc(/C=C2\\C(=O)N(c3ccc(C(=O)O)cc3)N=C2C(F)(F)F)cc1OCc1ccc(F)cc1", "Human immunodeficiency virus type 1 integrase (Human immunodeficiency virus 1)", "=", 4.39),
    ("COc1ccc(/C=C2\\C(=O)N(c3cccc(C)c3)N=C2C(F)(F)F)cc1OCc1ccc(F)cc1", "Human immunodeficiency virus type 1 integrase (Human immunodeficiency virus 1)", "<", 4.00),
    ("COc1ccc(/C=C2\\C(=O)N(c3cccc(Br)c3)N=C2NC(=O)C(F)(F)F)cc1OCc1ccc(F)cc1", "Human immunodeficiency virus type 1 integrase (Human immunodeficiency virus 1)", "<", 4.00),
]

Just for reference, ChEMBL document CHEMBL1268896 is where these values come from.
